This collection of values is drawn from the RNAGym collection of RNA variant scans (doi:10.7554/elife.80360).

B1: CPEB3 Ribozyme (parent)
chain: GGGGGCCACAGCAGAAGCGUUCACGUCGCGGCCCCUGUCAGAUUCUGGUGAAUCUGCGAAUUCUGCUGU

# Variants of: B1
# TEST DETAILS: self-cleavage, relative activity (ratio to wild type); higher = more cleavage; co-transcriptional

# MUTATION, self-cleavage
rows = [
    ("C6U A60U", 0.401),
    ("G2C G14A", 0.0455),
    ("C29G G50U", 0.535),
    ("U61A U67C", 0.896),
    ("G1C U20C", 0.098),
    ("G31U C34A", 0.232),
    ("C7U U53G", 0.949),
    ("C12G U20A", 0.228),
    ("G30C C32A", 0.194),
    ("C39G G56C", 0.938),
    ("A40G G68C", 0.953),
    ("G2C U36C", 0.063),
    ("C32A A42C", 0.342),
    ("G31U C54G", 0.33),
    ("G3A C29U", 0.145),
    ("G25A U38A", 0.149),
    ("G17U C24G", 0.0814),
    ("C33U A40U", 0.906),
    ("A15U G17U", 0.221),
    ("G37A G41A", 0.231),
    ("U20C A60C", 0.142),
    ("G17A C66A", 0.226),
    ("C22G U38C", 0.232),
    ("U20G G28C", 0.145),
    ("G30A U55G", 0.453),
    ("C35G G68A", 0.741),
    ("A8C G14C", 0.528),
    ("G30U C32A", 0.175),
    ("C54A U64A", 0.543),
    ("C22U U26A", 0.2),
    ("U20A G48A", 0.124),
    ("U43A C66U", 0.831),
    ("G3U G17U", 0.0304),
    ("A60U U67A", 0.454),
    ("A23C A42G", 0.901),
    ("G19U U46C", 0.499),
    ("C45U A60C", 0.33),
    ("U62G C66A", 0.376),
    ("A16G U26G", 0.848),
    ("C7U U46C", 0.973),
    ("A16G A52G", 0.87),
    ("U36A A51U", 0.306),
    ("G5C C57G", 0.098),
    ("G5U A60C", 0.0763),
    ("G11U C45A", 0.732),
    ("A16U U46C", 0.874),
    ("C39G A52G", 0.917),
    ("G30U G58C", 0.302),
    ("G30U A42C", 0.282),
    ("C6G U64A", 0.133),
    ("A16C A52U", 0.249),
    ("U36A C63G", 0.213),
    ("G2U U67G", 0.116),
    ("C7U C63U", 0.948),
    ("C18G C34G", 0.153),
    ("U43A G56C", 0.336),
    ("U36A U49G", 0.225),
    ("U21A A40G", 0.97),
    ("A13U C63A", 0.317),
    ("G3U U43C", 0.0372),
    ("C7G G31C", 0.101),
    ("C33A U38G", 0.212),
    ("G31U U49C", 0.731),
    ("C22A C35G", 0.153),
    ("G1U A15C", 0.136),
    ("G1A C9U", 0.19),
    ("C22A C33A", 0.2),
    ("C22G U43A", 0.114),
    ("G4A G56C", 0.456),
    ("A23G U55A", 0.879),
    ("G30C U53G", 0.46),
    ("C18U G25A", 0.157),
    ("G41U C45A", 0.422),
    ("A23G G47A", 0.996),
    ("C18U C66U", 0.704),
    ("G1C G4C", 0.216),
    ("C12A G41C", 0.191),
    ("C33G U64C", 0.484),
]
